test: in vivo; settings: CD-1, mouse
measurement-label: MTD (mg/kg)

>>> print(df.to_string())
                                   compound  reported_value
0  Nc1ccn([C@@H]2O[C@H](CO)[C@@H](O)[C@@H]2O)c(=O)n1 [Ara-C, cytarabine]              60
